Origin of values: PubChem BioAssay AID624491

- Test system: D54 ERlucT glycosylation luciferase reporter, luminescence, 24 h
- protocol: N-linked glycosylation inhibitors, luciferase reporter, dose response, D54 ERlucT cells, luminescence, cherry-picks (AID 624491);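 note: signal gain reflects blocked N-linked glycosylation of a luciferase reporter; actives raise luciferase signal so AC26 marks activators of the reporter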
attribute.measured: AC26

Here is how some molecules turned out for AC26.
* CN(C)CCNc1ccc2nnn3c4ccc(O)cc4c(=O)c1c23 | 52 nM
* NC(=O)N=Nc1c2[nH]c3ccccc3nc-2c2ccccc12 | 1130 nM
* Cc1nnc(NC(=O)CSc2nc(C(C)C)nc3ccccc23)s1 | 971 nM
* COc1ccc(S(=O)(=O)N2N=C(C)Oc3ccccc3C2=O)cc1 | 1250 nM
* O=C(CNc1cccc2ccccc12)N/N=C/C(Br)=C/c1ccccc1 | 17100 nM

Proceeding to the next molecule to report its AC26.
**Q:** // query AC26 value for entry `COc1ccc(Nc2nc(N3CCCC3)nc3ccccc23)c(OC)c1`
**A:** 1950 nM

---

- Test system: D54 ERlucT glycosylation luciferase reporter, luminescence, 24 h
- protocol: N-linked glycosylation inhibitors, luciferase reporter, dose response, D54 ERlucT cells, luminescence, cherry-picks (AID 624491)
attribute.measured: AC26

Look over these answered cases.
- CC(=O)c1cccc(-c2ccnc3c2CC(C(=O)Nc2ccc4c(c2)OCO4)O3)c1 (stereo not given): 2430 nM
- Cc1ccc(-c2nc(NCCCN(C)C)c3ccccc3n2)cc1: 5650 nM
- Cn1c(=O)c([N+](=O)[O-])c(-n2ccnc2)c2ccccc21: 4170 nM
- C/C(=N\O)C(=O)C(CN1CCCCC1)CN1CCCCC1: 1500 nM
- Cc1nc2c3cc(F)ccc3n(Cc3ccc(F)cc3)c2s1: 11500 nM
- Brc1ccc(C2=Nn3c(nnc3-c3n[nH]c4c3CCC4)SC2)cc1: 407 nM
- Cn1c(=O)[nH]c(=O)c2c1nc(N1CCN(Cc3ccccc3)CC1)n2CCCc1ccccc1: 436 nM
- Cc1ccc(C(=O)N2CCC(C(=O)Nc3cccc([N+](=O)[O-])c3)CC2)cc1: 804 nM
- COc1ccc(OC)c(Nc2nc(-c3c(C)nc4ncccn34)cs2)c1: 2730 nM

**Q:** For `CCn1c2ccccc2c2cc(NC(=O)c3cc(OC)c(OC)c(OC)c3)ccc21` , what is its reported AC26?
**A:** 605 nM

---

- Test system: D54 ERlucT glycosylation luciferase reporter, luminescence, 24 h
- protocol: N-linked glycosylation inhibitors, luciferase reporter, dose response, D54 ERlucT cells, luminescence, cherry-picks (AID 624491);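 note: signal gain reflects blocked N-linked glycosylation of a luciferase reporter; actives raise luciferase signal so AC26 marks activators of the reporter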
Active and inactive are the calls of the source.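 How the source made its calls: active means fitted curve crossing a set activation limit at or below the highest valid dose tested; inconclusive means flat fit at 30 to 70% activation, or poor fit; inactive means the rest, including signal decreases.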
Permitted responses: yes (1) (active), no (0) (inactive)

• Cc1cc(C)cc(C(=O)N2CC(=O)Nc3ccccc32)c1 = yes (1)
• COc1ccc(-c2oc3cc(O)c(OC)c(O)c3c(=O)c2OC)cc1O = yes (1)
• Cc1cc(-n2c(SCC(=O)NCCC3=CCCCC3)nc3n[nH]c(C)c3c2=N)ccc1Cl = yes (1)
• N#Cc1c(NCCN)nc(-c2ccco2)c2c1CCCC2 = yes (1)
• CC1CN(c2nc(-c3ccccc3)nnc2-c2ccccc2)CC(C)O1 (configuration not stated) = yes (1)
• NC(=O)CC(NC(=O)c1ccc(Br)cc1)c1ccc(N2CCCCCC2)c([N+](=O)[O-])c1 (configuration not stated) = yes (1)

**Q:** What did the test return for CCC(C)Nc1nc2ccccc2n2c(C)nnc12 (configuration not stated) ?
**A:** yes (1)

**Q:** Please let me know the test result on file for Cc1cc(=O)oc2cc(OCC(=O)N3c4ccccc4CC3C)ccc12 (configuration not stated) .
**A:** yes (1)

**Q:** Call for entry `CNC(=O)c1cccn(Cc2ccc(C(F)(F)F)cc2)c1=O` :
**A:** yes (1)

**Q:** Which outcome was assigned to `Cc1cccc(NC(=O)c2cnn3ccccc23)c1C` in this test?
**A:** yes (1)

**Q:** Check the results log: what was the call for `COc1ccc(C(=O)/C=C/c2ccc(OC)c(O)c2)c(F)c1` ?
**A:** yes (1)

**Q:** What classification did `COc1cccc(-c2cnc3c(NC=O)cc(-c4cc(C)c(O)c(C)c4)cn23)c1` end up with in this test?
**A:** yes (1)

**Q:** Each compound tested received a call. Report the one for `CCN(CC)CCNc1ccc(CO)c2oc3ccccc3c(=O)c12` .
**A:** yes (1)

**Q:** Hello, I am checking results. What call was entered for `COc1ccccc1-n1cnc2cc(NCc3ccco3)ccc21` ?
**A:** yes (1)

**Q:** Hello, I am checking results. What call was entered for `COC(=O)c1ccccc1NC(=O)Cn1nnc(-c2ccc(OC)cc2)n1` ?
**A:** no (0)

**Q:** Assay outcome for `Cc1cccc(NC(=O)Nc2cccc(C#N)c2)n1` : what was it?
**A:** yes (1)

**Q:** Tell me the assay call for `CCn1c2ccccc2c2cc(Nc3cc(C)nc4ncnn34)ccc21` please.
**A:** yes (1)

**Q:** Short answer needed: outcome of this test for `COc1ccc2c(c1)[C@H]1[C@H](CO2)[C@H](c2ccccc2)[C@]2(C)C(=O)Nc3cc(F)c(F)cc3C(=O)N12` ?
**A:** yes (1)

**Q:** In this assay, the call recorded for `COc1cc(NC(=O)c2cc(-c3ccccc3)nc3c2cnn3C(C)C)cc(OC)c1OC` was what?
**A:** yes (1)

**Q:** Kindly provide the recorded test outcome for the following compound: `Oc1ccc(-c2csc(-c3c[nH]c4ccccc34)n2)c(O)c1`
**A:** yes (1)

**Q:** // return assay outcome for `Cc1ccc(/C=N/NC(=O)c2sccc2OCc2ccc(F)cc2)cc1`
**A:** yes (1)

**Q:** Record lookup: outcome of this test for `O=C1c2ccccc2C(=O)N1Cc1cnc(N2CCN(c3ccccc3)CC2)s1` ?
**A:** yes (1)

---

- System: D54 ERlucT glycosylation luciferase reporter, luminescence, 24 h
- protocol: N-linked glycosylation inhibitors, luciferase reporter, dose response, D54 ERlucT cells, luminescence, cherry-picks (AID 624491);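 note: signal gain reflects blocked N-linked glycosylation of a luciferase reporter; actives raise luciferase signal so AC26 marks activators of the reporter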
attribute.measured: AC26

Example cases with answers are listed next.
• CC(=O)O[C@H]1C(=O)[C@@]2(C)C([C@H](OC(=O)c3ccccc3)[C@]3(O)C[C@H](O)C(C)=C1C3(C)C)[C@]1(OC(C)=O)CO[C@@H]1C[C@H]2O (stereo partly drawn) = 6.46 µM
• Cn1c(=O)[nH]c(=O)c2c1nc(SCC(N)=O)n2Cc1cccc(Br)c1 = 0.66 µM
• COc1cc(NC(=O)CN2c3cccc4cccc(c34)S2(=O)=O)cc(OC)c1OC = 1.77 µM
• CN1CCN(C(c2ccc(Cl)cc2)c2cc(Cl)c3cccnc3c2O)CC1 (stereo not drawn) = 4.04 µM
• CCOc1ccc2c(c1)OC(c1ccc(OC)cc1)(C(F)(F)F)NC2=O (stereo not drawn) = 1.61 µM
• COc1ccc(/C=C/C(=O)Oc2cccc(/C=N/NC(=O)COc3c(C)cccc3C)c2)cc1 = 4.77 µM
• COc1ccc(C(=O)N/N=C/C23CC[C@@H](O)CC2(O)CC[C@@H]2[C@@H]3CCC3(C)C(C4=CC(=O)OC4)CCC23O)cc1 (stereo partly drawn) = 5.71 µM

Now for a further molecule.
**Q:** Report AC26 for `COc1cc(C(=O)Nc2cc3c(cc2N2CCCCC2)n(C)c(=O)n3C)cc(OC)c1OC` please.
**A:** 3.87 µM

---

- System: D54 ERlucT glycosylation luciferase reporter, luminescence, 24 h
- protocol: N-linked glycosylation inhibitors, luciferase reporter, dose response, D54 ERlucT cells, luminescence, cherry-picks (AID 624491);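 note: signal gain reflects blocked N-linked glycosylation of a luciferase reporter; actives raise luciferase signal so AC26 marks activators of the reporter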
AC26 values by entry

Here are 2 molecules together with their reported answers.
* c1ccc2sc(Sc3ncnc4sccc34)nc2c1 | 1480 nM
* COC(=O)C1=C(c2cc3ccccc3s2)C[C@@H]2CC[C@H]1N2C(=O)N1CCOCC1 | 13600 nM

**Q:** Give D54 ERlucT glycosylation luciferase reporter, luminescence, 24 h AC26 for COc1ccc(NC(=O)C2Cc3c(-c4cccc(C(C)=O)c4)ccnc3O2)cn1 (centres undefined)
**A:** 203 nM

**Q:** Form field: AC26 recorded for `CC(C)Oc1ccc(C(=O)/C=C2/C(=O)Nc3ccccc32)cc1` with D54 ERlucT glycosylation luciferase reporter, luminescence, 24 h (enter value)
**A:** 3230 nM

**Q:** Hi! What's the reported AC26 for `Cc1[nH][nH]c(=O)c1C(c1ccc(-c2ccc(Cl)c(Cl)c2)o1)c1c(C)[nH][nH]c1=O` on D54 ERlucT glycosylation luciferase reporter, luminescence, 24 h?
**A:** 917 nM

**Q:** Lookup: AC26 / D54 ERlucT glycosylation luciferase reporter, luminescence, 24 h / `O=C(N/N=C/c1cccnc1)c1cc(-c2ccccc2OCc2ccccc2)n[nH]1`
**A:** 1890 nM

**Q:** Value wanted: AC26 (D54 ERlucT glycosylation luciferase reporter, luminescence, 24 h) of entry `CS(=O)(=O)c1cccc(C(=O)Nc2ccc(-c3nc4ccccc4[nH]3)cc2)c1`
**A:** 3070 nM

**Q:** Lab note: need AC26 with D54 ERlucT glycosylation luciferase reporter, luminescence, 24 h for entry `COc1ccc2c(c1)OC[C@H]1[C@H]2N2C(=O)c3ccc(C)cc3NC(=O)[C@@]2(C)[C@H]1c1ccccc1` , please look it up.
**A:** 926 nM

**Q:** # value lookup — system D54 ERlucT glycosylation luciferase reporter, luminescence, 24 h, readout AC26, item CC1(C(=O)NCc2ccc(F)c(F)c2)Cc2c(-c3ccc4c(c3)OCO4)ccnc2O1 (centres undefined)
**A:** 6730 nM
